// provenance: patent US20210230599

Biological target: Interleukin-8 (IL8, CXCL8), C-terminal His-tagged (Homo sapiens, UniProt P10145 SEQ:1-72)
Sequence (P10145 28-99): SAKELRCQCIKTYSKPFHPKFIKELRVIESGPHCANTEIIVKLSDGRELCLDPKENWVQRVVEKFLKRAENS
Assay: TR-FRET; bead flow 16 nM
Conditions: tags: C-terminal 6xHis (Sino Biological); label: Alexa Fluor 647; stem-loop (Aptamer 3 family)
pKd: −log10 of the molar value.

{"columns": ["Binder", "pKd"],
 "data": [
  ["UUGGCCACAGUAGAUUUCGGUGCGUGUGACUGGGCU (ssRNA, 2'-F G, 2'-OMe A/C/U, 5' C6NH2, 3' idT) [Aptamer 12]", 7.92]
]}
